# SYSTEM UNDER TEST: human Bradykinin B1 receptor (Homo sapiens, UniProt P46663)
# Construct: host or cells: CHO-K1
# Sequence (P46663 1-353): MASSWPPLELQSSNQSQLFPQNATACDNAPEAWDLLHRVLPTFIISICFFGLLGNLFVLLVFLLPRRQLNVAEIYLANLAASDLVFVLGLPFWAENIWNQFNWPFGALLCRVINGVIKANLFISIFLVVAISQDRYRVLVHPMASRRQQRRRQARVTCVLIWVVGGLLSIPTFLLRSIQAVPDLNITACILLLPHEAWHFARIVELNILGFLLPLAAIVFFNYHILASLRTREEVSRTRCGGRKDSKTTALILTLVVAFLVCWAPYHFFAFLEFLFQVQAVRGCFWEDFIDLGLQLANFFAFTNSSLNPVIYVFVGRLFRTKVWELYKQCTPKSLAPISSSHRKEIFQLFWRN
# EXPERIMENT NOTES: Calcium flux Assay (FLIPR) with recombinant CHO-K1 cells expressing human Bradykinin B1 receptor, in presence (hB1 IC50) or absence (hB1 free IC50) of 0.1% BSA
# Format: cell-based
# RUN CONDITIONS: in absence of 0.1% BSA, read-out: hB1 free IC50
pIC50: −log10 of the molar value.
Record yes (1) whenever pIC50 is at 7 or higher; record no (0) when lower.

compound="O=C(Nc1ccc(-c2ccc(C(F)(F)F)nc2)c(-c2nnn[nH]2)c1)C1(c2ccc(F)cn2)CC1 [Example 145]" group="no (0)"
compound="Cc1ncc(-c2ccc(NC(=O)C3(c4cccc(Cl)c4)CC3)cc2-c2nnn[nH]2)cn1 [Example 194]" group="no (0)"
compound="O=C(Nc1ccc(-c2ccc(C(F)(F)F)nc2)c(-c2nnn[nH]2)c1F)C1(c2cccc(Cl)c2)CC1 [Example 297]" group="no (0)"
compound="Cc1ncc(-c2ccc(NC(=O)C3(c4cccc(Cl)c4F)CC3)cc2-c2nnn[nH]2)cn1 [Example 195]" group="no (0)"
compound="COc1ccc(-c2ccc(NC(=O)C3(C4CCC(C)(C)CC4)CC3)cc2-c2nnn[nH]2)cc1OC [Example 56]" group="yes (1)"
compound="O=C(Nc1ccc(-c2ccc(C(F)F)nc2)c(-c2nnn[nH]2)c1)C1(c2ccc(Cl)cc2)CC1 [Example 269]" group="yes (1)"
compound="O=C(Nc1ccc(-c2ccnc(C(F)(F)F)c2)c(-c2nnn[nH]2)c1)C1(c2ccc(OC(F)(F)F)cc2F)CC1 [Example 295]" group="yes (1)"
compound="O=C(Nc1ccc(-c2ccnc(C(F)(F)F)c2)c(-c2nnn[nH]2)c1)C1(c2ccc(Cl)c(F)c2)CC1 [Example 177]" group="no (0)"
compound="CCOc1cncc(-c2ccc(NC(=O)C3(c4ccc(C(F)(F)F)cc4)CC3)cc2-c2nnn[nH]2)c1 [Example 156]" group="yes (1)"
compound="O=C(Nc1ccc(-c2ccc(C(F)F)nc2)c(-c2nnn[nH]2)c1)C1(c2ccc(OC(F)(F)F)cc2)CC1 [Example 271]" group="yes (1)"
compound="CCOc1ccc(-c2ccc(NC(=O)C3(c4ccc(C(F)(F)F)cc4F)CC3)cc2-c2nnn[nH]2)cn1 [Example 72]" group="yes (1)"
compound="O=C(Nc1ccc(-c2ccc(C(F)(F)F)nc2)c(-c2nnn[nH]2)c1)C1(c2cccc(C(F)(F)F)c2)CC1 [Example 144]" group="no (0)"
compound="O=C(Nc1ccc(-n2ccc(C(F)(F)F)n2)c(-c2nnn[nH]2)c1)C1(c2cccc(Cl)c2)CC1 [Example 354]" group="no (0)"
compound="O=C(Nc1ccc(-c2cnc(C(F)(F)F)nc2)c(-c2nnn[nH]2)c1)C1(c2ccc(OC(F)(F)F)cc2)CC1 [Example 198]" group="no (0)"
compound="CCc1ccn(-c2ccc(NC(=O)C3(c4cccc(Cl)c4)CC3)cc2-c2nnn[nH]2)n1 [Example 374]" group="no (0)"
compound="Cc1ccc(C2(C(=O)Nc3ccc(-c4ccc(C(F)(F)F)nc4)c(-c4nnn[nH]4)c3)CC2)c(F)c1 [Example 291]" group="yes (1)"
compound="CCOc1ccc(-c2c(Cl)cc(NC(=O)C3(c4cccc(Cl)c4F)CC3)cc2-c2nnn[nH]2)cn1 [Example 248]" group="yes (1)"

Source listed as patent US20210317092A1.
